Assign inflexion point to each entry below.
# TEST_TARGET: T1, Tim3-ECD-His-Biotin (human, UniProt Q8TDQ0 22-202)
# T1 construct: also called human Tim3 (ELISA); Biochem Human
# ASSAY_COMMENT: ELISA, human Tim3
Answers are plain numbers, in ng/mL.

aTim3 0018MutNS (antibody, V domains shown, also called aT3m3 0018MutNS) VH: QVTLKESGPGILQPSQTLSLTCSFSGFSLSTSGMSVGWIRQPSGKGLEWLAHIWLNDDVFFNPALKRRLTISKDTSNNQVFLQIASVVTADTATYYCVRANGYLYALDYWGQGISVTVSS VL: QIVLTQSPAIMSASPGQKVTITCSASSSVSYTQWYQQKLGSSPKLWIYDAFKLAPGVPARFSGSGTGTSYSLTISSMEAEDAASYFCHQWSSYPWTFGGGTKLEIK; 6.5

Give inflexion point for all binders that follow.
1. aTim3 0016 MutNQ (antibody, V domains shown) VH: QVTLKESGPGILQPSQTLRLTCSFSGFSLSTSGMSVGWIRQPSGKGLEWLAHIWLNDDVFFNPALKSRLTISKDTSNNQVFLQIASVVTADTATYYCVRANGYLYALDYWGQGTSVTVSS VL: QIVLTQSPAIMSASPGQKVTITCSASSSVQYTQWYQQKLGSSPKLWIYDAFKLAPGVPARFSGSGTGTSYSLTISSMEAEDAASYFCHQWSSYPWTFGGGTKLEIK
2. aTim3 0016MutNS (antibody, V domains shown) VH: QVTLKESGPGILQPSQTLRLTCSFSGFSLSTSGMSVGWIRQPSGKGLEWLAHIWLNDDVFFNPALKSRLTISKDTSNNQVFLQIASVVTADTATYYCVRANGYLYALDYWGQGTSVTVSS VL: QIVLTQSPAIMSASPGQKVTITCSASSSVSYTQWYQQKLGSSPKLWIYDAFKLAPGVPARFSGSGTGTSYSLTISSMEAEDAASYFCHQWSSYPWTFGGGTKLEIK
3. aTim3 0018MutNQ (antibody, V domains shown, also called aT3m3 0018MutNQ) VH: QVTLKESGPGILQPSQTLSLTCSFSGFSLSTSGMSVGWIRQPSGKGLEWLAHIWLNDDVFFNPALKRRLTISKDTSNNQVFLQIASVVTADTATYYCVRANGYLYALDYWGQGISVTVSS VL: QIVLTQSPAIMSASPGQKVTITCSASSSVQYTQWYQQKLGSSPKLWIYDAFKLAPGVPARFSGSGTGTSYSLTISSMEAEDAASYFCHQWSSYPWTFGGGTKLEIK
4. Tim3_0016 variant (Tim3_0018) (antibody, V domains shown, also called TIM3-0016 variant (0018); aTim3 0018) VH: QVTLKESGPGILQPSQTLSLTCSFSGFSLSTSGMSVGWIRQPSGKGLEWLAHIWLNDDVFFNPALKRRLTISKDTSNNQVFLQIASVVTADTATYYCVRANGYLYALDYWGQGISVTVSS VL: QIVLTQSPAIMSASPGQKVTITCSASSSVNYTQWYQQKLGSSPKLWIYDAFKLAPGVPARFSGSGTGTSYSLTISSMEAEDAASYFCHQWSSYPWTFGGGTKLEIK

[5.7, 6.5, 10.8, 15.3]
